- Test system: E. faecium E1679
- test: MIC assay
- Assay type: cell-based, Enterococcus faecium
- measurement.conditions: E. faecium E1679, VanA
endpoint: MIC

Input: // lookup MIC for CN[C@H](CC(C)C)C(=O)N[C@H]1C(=O)N[C@@H](CC(N)=O)C(=O)N[C@H]2C(=O)N[C@H]3C(=O)N[C@H](C(=O)N[C@H](C(=O)O)c4cc(O)cc(O)c4-c4cc3ccc4O)[C@H](O)c3ccc(c(Cl)c3)Oc3cc2cc(c3O[C@@H]2O[C@H](CO)[C@@H](O)[C@H](O)[C@H]2O[C@H]2C[C@](C)(NCc3ccc(N=C(N)NC/C=C(\C)CCC=C(C)C)cc3)[C@H](O)[C@H](C)O2)Oc2ccc(cc2Cl)[C@H]1O [Compound 14]
Output: 16 µg/mL

# context switch: different molecule, same MIC
Input: // lookup MIC for CCCCCCN(CCCCCC)C(N)=Nc1ccc(CN[C@@]2(C)C[C@H](O[C@H]3[C@H](Oc4c5cc6cc4Oc4ccc(cc4Cl)[C@@H](O)[C@@H](NC(=O)[C@@H](CC(C)C)NC)C(=O)N[C@@H](CC(N)=O)C(=O)N[C@H]6C(=O)N[C@H]4C(=O)N[C@H](C(=O)N[C@H](C(=O)O)c6cc(O)cc(O)c6-c6cc4ccc6O)[C@H](O)c4ccc(c(Cl)c4)O5)O[C@H](CO)[C@@H](O)[C@@H]3O)O[C@@H](C)[C@H]2O)cc1 [Compound 12]
Output: 8 µg/mL

* * *

- test: Cytotoxicity assay for HepG2 (MTT)
- Format: cell-based, human
- measurement.conditions: human, HepG2 human hepatocellular carcinoma cells; MTT, HepG2, 24 h, 10% FBS, n = 3; read-out: AC50
endpoint: AC50 at 24 h

Input: // lookup AC50 at 24 h for N#CC(C#N)=NNc1cccc(Cl)c1 [carbonyl cyanide 3-chlorophenylhydrazone]
Output: > 100 µM

* * *

- Tested on: E. faecium E0300
- test: MIC assay
- Format: cell-based, Enterococcus faecium
- measurement.conditions: E. faecium E0300, VanA
endpoint: MIC (µg/mL)
# number only, unit µg/mL dropped from output

Input: // lookup MIC for CCCCCCCNC(N)=Nc1ccc(CN[C@@]2(C)C[C@H](O[C@H]3[C@H](Oc4c5cc6cc4Oc4ccc(cc4Cl)[C@@H](O)[C@@H](NC(=O)[C@@H](CC(C)C)NC)C(=O)N[C@@H](CC(N)=O)C(=O)N[C@H]6C(=O)N[C@H]4C(=O)N[C@H](C(=O)N[C@H](C(=O)O)c6cc(O)cc(O)c6-c6cc4ccc6O)[C@H](O)c4ccc(c(Cl)c4)O5)O[C@H](CO)[C@@H](O)[C@@H]3O)O[C@@H](C)[C@H]2O)cc1
Output: 4

# context switch: different molecule, same MIC
Input: // lookup MIC for CCCCCCCCNC(N)=Nc1ccc(CN[C@@]2(C)C[C@H](O[C@H]3[C@H](Oc4c5cc6cc4Oc4ccc(cc4Cl)[C@@H](O)[C@@H](NC(=O)[C@@H](CC(C)C)NC)C(=O)N[C@@H](CC(N)=O)C(=O)N[C@H]6C(=O)N[C@H]4C(=O)N[C@H](C(=O)N[C@H](C(=O)O)c6cc(O)cc(O)c6-c6cc4ccc6O)[C@H](O)c4ccc(c(Cl)c4)O5)O[C@H](CO)[C@@H](O)[C@@H]3O)O[C@@H](C)[C@H]2O)cc1
Output: 2

* * *

- System: E. faecalis E1246
- test: MIC assay
- Assay type: cell-based, Enterococcus faecalis
- measurement.conditions: E. faecalis E1246 VRE (VanA), Table 7
Attribute: MIC
# number only, unit µg/mL dropped from output

Input: // lookup MIC for CCCCCCCCCCN(CCCCCCCCCC)C(N)=Nc1ccc(CN[C@@]2(C)C[C@H](O[C@H]3[C@H](Oc4c5cc6cc4Oc4ccc(cc4Cl)[C@@H](O)[C@@H](NC(=O)[C@@H](CC(C)C)NC)C(=O)N[C@@H](CC(N)=O)C(=O)N[C@H]6C(=O)N[C@H]4C(=O)N[C@H](C(=O)N[C@H](C(=O)O)c6cc(O)cc(O)c6-c6cc4ccc6O)[C@H](O)c4ccc(c(Cl)c4)O5)O[C@H](CO)[C@@H](O)[C@@H]3O)O[C@@H](C)[C@H]2O)cc1
Output: 32

Input: // lookup MIC for CCCCCCCCCNC(N)=Nc1ccc(CN[C@@]2(C)C[C@H](O[C@H]3[C@H](Oc4c5cc6cc4Oc4ccc(cc4Cl)[C@@H](O)[C@@H](NC(=O)[C@@H](CC(C)C)NC)C(=O)N[C@@H](CC(N)=O)C(=O)N[C@H]6C(=O)N[C@H]4C(=O)N[C@H](C(=O)N[C@H](C(=O)O)c6cc(O)cc(O)c6-c6cc4ccc6O)[C@H](O)c4ccc(c(Cl)c4)O5)O[C@H](CO)[C@@H](O)[C@@H]3O)O[C@@H](C)[C@H]2O)cc1
Output: 2

# context switch: different molecule, same MIC
Input: // lookup MIC for CCCCCCNC(N)=Nc1ccc(CNC2(C)CC(OC3C(Oc4c5cc6cc4Oc4ccc(cc4Cl)C(O)C4NC(=O)C(NC(=O)C6NC(=O)C(CC(N)=O)NC(=O)C(NC(=O)C(CC(C)C)NC)C(O)c6ccc(c(Cl)c6)O5)c5ccc(O)c(c5)-c5c(O)cc(O)cc5C(C(=O)O)NC4=O)OC(CO)C(O)C3O)OC(C)C2O)cc1 (stereo not drawn)
Output: 32

* * *

- Tested on: E. faecalis E1246
- test: MIC assay
- Assay type: cell-based, Enterococcus faecalis
- measurement.conditions: E. faecalis E1246 VRE (VanA), Table 7
Attribute: MIC
# number only, unit µg/mL dropped from output

Illustrative cases are given below, each with its answer.
Input: // lookup MIC for CN[C@H](CC(C)C)C(=O)N[C@H]1C(=O)N[C@@H](CC(N)=O)C(=O)N[C@H]2C(=O)N[C@H]3C(=O)N[C@H](C(=O)N[C@H](C(=O)O)c4cc(O)cc(O)c4-c4cc3ccc4O)[C@H](O)c3ccc(c(Cl)c3)Oc3cc2cc(c3O[C@@H]2O[C@H](CO)[C@@H](O)[C@H](O)[C@H]2O[C@H]2C[C@](C)(NCc3ccc(N=C(N)NC/C=C(\C)CCC=C(C)C)cc3)[C@H](O)[C@H](C)O2)Oc2ccc(cc2Cl)[C@H]1O
Output: 8

Input: // lookup MIC for CCCCCCCCNC(N)=Nc1ccc(CN[C@@]2(C)C[C@H](O[C@H]3[C@H](Oc4c5cc6cc4Oc4ccc(cc4Cl)[C@@H](O)[C@@H](NC(=O)[C@@H](CC(C)C)NC)C(=O)N[C@@H](CC(N)=O)C(=O)N[C@H]6C(=O)N[C@H]4C(=O)N[C@H](C(=O)N[C@H](C(=O)O)c6cc(O)cc(O)c6-c6cc4ccc6O)[C@H](O)c4ccc(c(Cl)c4)O5)O[C@H](CO)[C@@H](O)[C@@H]3O)O[C@@H](C)[C@H]2O)cc1
Output: 8

---
Input: // lookup MIC for CN[C@H](CC(C)C)C(=O)N[C@H]1C(=O)N[C@@H](CC(N)=O)C(=O)N[C@H]2C(=O)N[C@H]3C(=O)N[C@H](C(=O)N[C@H](C(=O)O)c4cc(O)cc(O)c4-c4cc3ccc4O)[C@H](O)c3ccc(c(Cl)c3)Oc3cc2cc(c3O[C@@H]2O[C@H](CO)[C@@H](O)[C@H](O)[C@H]2O[C@H]2C[C@](C)(NCc3ccc(N=C(N)NCC45CC6CC(CC(C6)C4)C5)cc3)[C@H](O)[C@H](C)O2)Oc2ccc(cc2Cl)[C@H]1O
Output: 16

* * *

- test: Cytotoxicity assay for HepG2 (MTT)
- Type: cell-based, human
- measurement.conditions: human
endpoint: AC50 at 24 h (µM)
# number only, unit µM dropped from output

Input: // lookup AC50 at 24 h for CN(C)CCCN1c2ccccc2Sc2ccc(Cl)cc21
Output: 19

* * *

Attribute: MIC
- Tested on: E. faecalis E1246
- test: MIC assay
- Assay type: cell-based, Enterococcus faecalis
- measurement.conditions: E. faecalis E1246 VRE (VanA), Table 7
# number only, unit µg/mL dropped from output

Illustrative cases are given below, each with its answer.
Input: // lookup MIC for CCCCCCCCCCCCCCNC(N)=Nc1ccc(CN[C@@]2(C)C[C@H](O[C@H]3[C@H](Oc4c5cc6cc4Oc4ccc(cc4Cl)[C@@H](O)[C@@H](NC(=O)[C@@H](CC(C)C)NC)C(=O)N[C@@H](CC(N)=O)C(=O)N[C@H]6C(=O)N[C@H]4C(=O)N[C@H](C(=O)N[C@H](C(=O)O)c6cc(O)cc(O)c6-c6cc4ccc6O)[C@H](O)c4ccc(c(Cl)c4)O5)O[C@H](CO)[C@@H](O)[C@@H]3O)O[C@@H](C)[C@H]2O)cc1 [Compound 10]
Output: 2

Input: // lookup MIC for CN[C@H](CC(C)C)C(=O)N[C@H]1C(=O)N[C@@H](CC(N)=O)C(=O)N[C@H]2C(=O)N[C@H]3C(=O)N[C@H](C(=O)N[C@H](C(=O)O)c4cc(O)cc(O)c4-c4cc3ccc4O)[C@H](O)c3ccc(c(Cl)c3)Oc3cc2cc(c3O[C@@H]2O[C@H](CO)[C@@H](O)[C@H](O)[C@H]2O[C@H]2C[C@](C)(NCc3ccc(N=C(N)NC45CC6CC(CC(C6)C4)C5)cc3)[C@H](O)[C@H](C)O2)Oc2ccc(cc2Cl)[C@H]1O [Compound 17]
Output: 16

Input: // lookup MIC for CCCCCCCNC(N)=Nc1ccc(CN[C@@]2(C)C[C@H](O[C@H]3[C@H](Oc4c5cc6cc4Oc4ccc(cc4Cl)[C@@H](O)[C@@H](NC(=O)[C@@H](CC(C)C)NC)C(=O)N[C@@H](CC(N)=O)C(=O)N[C@H]6C(=O)N[C@H]4C(=O)N[C@H](C(=O)N[C@H](C(=O)O)c6cc(O)cc(O)c6-c6cc4ccc6O)[C@H](O)c4ccc(c(Cl)c4)O5)O[C@H](CO)[C@@H](O)[C@@H]3O)O[C@@H](C)[C@H]2O)cc1 [Compound 5]
Output: 16

# context switch: different compound, same MIC
Input: // lookup MIC for CCCCCCCCCCCCNC(N)=Nc1ccc(CN[C@@]2(C)C[C@H](O[C@H]3[C@H](Oc4c5cc6cc4Oc4ccc(cc4Cl)[C@@H](O)[C@@H](NC(=O)[C@@H](CC(C)C)NC)C(=O)N[C@@H](CC(N)=O)C(=O)N[C@H]6C(=O)N[C@H]4C(=O)N[C@H](C(=O)N[C@H](C(=O)O)c6cc(O)cc(O)c6-c6cc4ccc6O)[C@H](O)c4ccc(c(Cl)c4)O5)O[C@H](CO)[C@@H](O)[C@@H]3O)O[C@@H](C)[C@H]2O)cc1 [Compound 9]
Output: 1
